Value source: patent US20220017483A1

test_target: A2a receptor cell membrane (human origin) (Homo sapiens, UniProt P29274)
Construct: purchased PerkinElmer RBHA2AM400UA
Sequence (P29274 whole entry): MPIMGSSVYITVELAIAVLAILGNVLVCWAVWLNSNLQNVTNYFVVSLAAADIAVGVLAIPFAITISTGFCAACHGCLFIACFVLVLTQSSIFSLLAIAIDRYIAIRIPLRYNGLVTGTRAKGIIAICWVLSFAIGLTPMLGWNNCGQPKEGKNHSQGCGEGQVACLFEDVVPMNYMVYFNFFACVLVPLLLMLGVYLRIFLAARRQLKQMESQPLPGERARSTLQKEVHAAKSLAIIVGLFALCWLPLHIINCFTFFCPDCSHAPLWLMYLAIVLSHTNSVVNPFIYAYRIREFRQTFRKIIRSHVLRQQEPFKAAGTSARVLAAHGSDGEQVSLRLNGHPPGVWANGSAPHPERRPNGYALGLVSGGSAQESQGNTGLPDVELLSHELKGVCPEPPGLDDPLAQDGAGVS
experiment: Competitive inhibition constant (Ki) for adenosine A2a receptor, [3H]-CGS-21680 radioligand binding
condition_parameters: human A2a receptor cell membrane, [3H]-CGS-21680 6.0 nM; read-out: Ki(A2a)
pKi: −log10 of the molar value.
measured_property: pKi

INSERT INTO assay_data (molecule, observed_measurement) VALUES
  ('Cc1ccnc2ccc(-c3cc(C(N)=O)c(N)nc3-c3ccc(F)cc3)cc12 [Compound 22]', 8.80),
  ('Cc1cc(-c2cc(-n3cc(C(N)=O)cn3)c(N)nc2-c2ccc(F)cc2)cc(Cl)n1 [Compound 26]', 6.98),
  ('Cc1ncnc2ccc(-c3cc(-c4cnn(CCN(C)C)c4)c(N)nc3-c3ccc(F)cc3)cc12 [Compound 16]', 7.78),
  ('Cc1ncnc2ccc(-c3cc(-c4cnn(C)c4)c(N)nc3-c3ccc(F)cc3)cc12 [Compound 8]', 8.32),
  ('CNC(=O)Cn1cc(-c2cc(-c3ccc4ncnc(C)c4c3)c(-c3ccc(F)cc3)nc2N)cn1 [Compound 19]', 8.00),
  ('Cc1ncnc2ccc(-c3cc(-n4cc(C(N)=O)cn4)c(N)nc3-c3ccc(F)cc3)cc12 [Compound 24]', 7.63),
  ('Cc1ncnc2ccc(-c3cc(-c4cnn(CC(C)(C)O)c4)c(N)nc3-c3ccc(F)cc3)cc12 [Compound 21]', 7.88),
  ('Cc1ccnc2ccc(-c3cc(-c4nnc(C(N)=O)o4)c(N)nc3-c3ccc(F)cc3)cc12 [Compound 29]', 8.92),
  ('CNC(=O)c1cc(-c2ccc3ncnc(C)c3c2)c(-c2ccc(F)cc2)nc1N [Compound 7]', 7.69),
  ('Cc1ncnc2ccc(-c3cc(C(=O)O)c(N)nc3-c3ccc(F)cc3)cc12 [Compound 4]', 7.59),
  ('NC(=O)c1cc(-c2ccncc2)c(-c2cccc(F)c2)nc1N [Control compound 1, reference compound]', 6.86),
  ('Cc1ncnc2ccc(-c3cc(C(N)=O)c(N)nc3-c3cc(F)cc(F)c3)cc12 [Compound 12]', 8.17),
  ('Cc1ncnc2ccc(-c3c(C#N)cc(N)nc3-c3ccc(F)cc3)cc12 [Compound 11]', 8.85),
  ('COC(=O)c1cc(-c2ccc3ncnc(C)c3c2)c(-c2ccc(F)cc2)nc1N [Compound 3]', 8.31),
  ('Cc1ncnc2ccc(-c3c(Cl)cc(N)nc3-c3ccc(F)cc3)cc12 [Compound 10]', 8.70),
  ('Cc1ncnc2ccc(-c3cc(Br)c(N)nc3-c3ccc(F)cc3)cc12 [Compound 2]', 8.59),
  ('Cc1ncnc2ccc(-c3cc(-c4nnn[nH]4)c(N)nc3-c3ccc(F)cc3)cc12 [Compound 9]', 7.90);
